Data origin, for the record: patent US20150337019A1

# target.or.system: Cathepsin B from bovine spleen (bovine, UniProt P07688 80-332)
# assay.comment: cell-based or functional assay
Entries and their Cathepsin B inhibition test, 2 mM peptide values follow.
Answer as a number with no unit attached.

Reference set, count: 4
>  <binder>
Ac-Leu-Leu-Lys-NH2 [Ac-LLK-NH2]

>  <readout.value>
159

$$$$
>  <binder>
Ac-Leu-Ile-Arg-OH (also: MGO-modified, site not given here) [MGO-modified Ac-LIR-OH]

>  <readout.value>
0.07

$$$$
>  <binder>
Ac-Leu-Ile-Arg-OH [Ac-LIR-OH]

>  <readout.value>
128

$$$$
>  <binder>
Ac-Leu-Val-Lys-OH (also: MGO-modified, site not given here) [MGO-modified Ac-LVK-OH]

>  <readout.value>
80.8

$$$$

Problem: Entry Ac-Leu-Leu-Lys-OH (also: MGO-modified, site not given here) [MGO-modified Ac-LLK-OH] : reported Cathepsin B inhibition test, 2 mM peptide = ?
Result: 148

Problem: Entry Ac-Leu-Val-Lys-NH2 [Ac-LVK-NH2] : reported Cathepsin B inhibition test, 2 mM peptide = ?
Result: 92.7
